The following variants are listed with their measured protein stability index values.
B1: SNX8 (parent)
chain: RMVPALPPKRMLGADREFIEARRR

# Variants of: B1
# measurementProtocol: protein stability index of a GFP-peptide fusion (GPS, HEK-293T) (PSI 1-6); higher = more stable;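 further: lentivirally expressed fusions sorted by FACS into six bins by GFP to DsRed ratio, PSI derived from sequencing read proportions per bin multiplied by bin number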
# runParameters: c terminus: a fixed tail appended
Lab note: jot the number down without any unit.

INSERT INTO results (orderedresidues, measurementtype, valuemeasured) VALUES
  ('RMVPALPPKVMLGADREFIEARRR', 'protein stability index', 4.04);

Memo: `RMVPALPPKRMLGADREFYEARRR` , reported protein stability index: 3.98

Memo: `RMVPAIPPKRMLGADREFIEARRR` , reported protein stability index: 3.96
